# TARGET_OR_SYSTEM: B. subtilis XPRT (Bacillus subtilis)
# Sequence (P42085 whole entry): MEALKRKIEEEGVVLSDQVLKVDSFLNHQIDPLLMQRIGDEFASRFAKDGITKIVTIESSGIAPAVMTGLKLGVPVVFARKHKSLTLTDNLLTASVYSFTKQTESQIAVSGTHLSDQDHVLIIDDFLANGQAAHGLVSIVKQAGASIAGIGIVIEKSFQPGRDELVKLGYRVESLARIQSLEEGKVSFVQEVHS
RECORDED_METRIC: Ki (nM)

- Nc1nc2c(ncn2[C@@H]2O[C@H](COP(=O)(O)OP(=O)(O)OP(=O)(O)O)[C@@H](OP(=O)(O)OP(=O)(O)O)[C@H]2O)c(=O)[nH]1: 2500
